# SYSTEM NAME: UniProt P42574
# Sequence (P42574 whole entry): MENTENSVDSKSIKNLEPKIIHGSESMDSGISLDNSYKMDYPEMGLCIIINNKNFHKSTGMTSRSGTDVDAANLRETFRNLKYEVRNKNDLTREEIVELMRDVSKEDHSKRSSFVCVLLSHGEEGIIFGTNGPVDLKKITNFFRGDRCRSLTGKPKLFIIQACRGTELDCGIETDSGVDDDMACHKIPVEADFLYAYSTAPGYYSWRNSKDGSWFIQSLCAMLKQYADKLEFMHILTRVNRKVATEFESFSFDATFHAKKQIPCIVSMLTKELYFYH
# Assay type: functional
The source made the active and inactive calls.
IC50 values for the compounds below.
RECORDED METRIC: IC50

compound=O=C(COC(=O)c1ccc([N+](=O)[O-])s1)Nc1ccc(F)cc1 recorded_metric=IC50 result="8.43 µM (active)"
compound=Fc1ccccc1COc1ccc(C(=S)N2CCCC2)cc1 recorded_metric=IC50 result="9.99 µM (active)"
compound="Cc1ccc2nc(-c3cccnc3SCC(=O)N3c4ccccc4CC3C)[nH]c2c1 (stereo unspecified)" recorded_metric=IC50 result="4.22 µM (active)"
compound=COc1cccc(-c2nnc(-c3ccccc3[N+](=O)[O-])o2)c1 recorded_metric=IC50 result="19.1 µM (active)"
compound=O=C(Nc1ccc2c(c1)CCC2)c1ccc(Br)s1 recorded_metric=IC50 result="17.5 µM (active)"
compound=Cc1ccc(/C=N/OC(=O)c2nn(C)cc2Cl)cc1 recorded_metric=IC50 result="24 µM (active)"

###

# SYSTEM NAME: Corticotropin-releasing factor receptor 2/Corticotropin-releasing factor-binding protein (Homo sapiens, UniProt P24387+Q13324)
# Sequence (Q13324 whole entry): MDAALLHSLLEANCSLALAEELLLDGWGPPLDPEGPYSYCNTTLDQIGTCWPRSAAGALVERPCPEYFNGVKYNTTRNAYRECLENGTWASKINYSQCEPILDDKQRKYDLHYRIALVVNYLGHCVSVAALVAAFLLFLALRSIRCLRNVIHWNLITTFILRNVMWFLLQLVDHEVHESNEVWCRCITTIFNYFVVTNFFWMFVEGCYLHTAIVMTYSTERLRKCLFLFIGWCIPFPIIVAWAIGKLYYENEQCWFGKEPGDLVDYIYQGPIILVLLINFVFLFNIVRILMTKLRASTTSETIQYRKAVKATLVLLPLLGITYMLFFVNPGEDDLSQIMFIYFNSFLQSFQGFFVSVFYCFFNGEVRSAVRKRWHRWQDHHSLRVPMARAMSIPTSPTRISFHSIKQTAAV
# Sequence (P24387 whole entry): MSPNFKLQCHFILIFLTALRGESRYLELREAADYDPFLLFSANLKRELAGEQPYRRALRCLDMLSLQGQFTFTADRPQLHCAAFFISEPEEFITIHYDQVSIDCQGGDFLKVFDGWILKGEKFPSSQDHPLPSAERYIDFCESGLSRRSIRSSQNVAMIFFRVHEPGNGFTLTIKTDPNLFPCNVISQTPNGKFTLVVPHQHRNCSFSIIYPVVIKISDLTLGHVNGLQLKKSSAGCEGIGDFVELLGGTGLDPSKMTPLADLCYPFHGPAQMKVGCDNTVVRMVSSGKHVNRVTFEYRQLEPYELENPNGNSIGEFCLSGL
# ASSAY PROTOCOL: Dose Response confirmation of uHTS hits for small molecule antagonists of the CRF-binding protein and CRF-R2 receptor complex.
# Assay type: functional
# MEASUREMENT CONDITIONS: read-out: IC50_Mean
The source made the active and inactive calls. Rule as the data show it: actives have a measured IC50 and inactives only a lower limit. Non-standard residues stand in square brackets, D forms with d. Residues, ends and D or L forms follow the SMILES beside them. ξ: configuration not given here. *: point of attachment. Trx = NC[C@H]1CC[C@H](C(=O)O)CC1; Tic = O=C(O)[C@@H]1Cc2ccccc2CN1; Ile(3ξ) = CCC(C)[C@H](N)C(=O)O; Boc = CC(C)(C)OC(=O)*
RECORDED METRIC: IC50

compound=O=C(NCCCO)C(=O)Nc1cc2c3c(c1)CCN3C(=O)CC2 recorded_metric=IC50 result="> 47.1 µM (inactive)"
compound="CC(C)(C)NC(=O)C(c1ccc(O)cc1)N(Cc1ccc2c(c1)OCO2)C(=O)CCl (configuration not stated)" recorded_metric=IC50 result="> 47.1 µM (inactive)"
compound="CCC(C)[C@H](NC(=O)[C@@H]1Cc2ccccc2CN1C(=O)OC(C)(C)C)C(=O)NC[C@H]1CC[C@H](C(=O)O)CC1 (some centres not stated) (Boc-[Tic]-[Ile(3ξ)]-[Trx]-OH)" recorded_metric=IC50 result="> 47.1 µM (inactive)"
compound=O=C(c1cccc(NS(=O)(=O)c2ccc(F)c(F)c2)c1)N1CCN(C(c2ccccc2)c2ccccc2)CC1 recorded_metric=IC50 result="> 47.1 µM (inactive)"
compound=CCCCN(C(=O)c1ccc2c(c1)S(=O)(=O)N=C1CCCCCN12)c1c(N)n(CCCC)c(=O)[nH]c1=O recorded_metric=IC50 result="> 47.1 µM (inactive)"
compound=O=C(O)c1cnn(-c2nc(-c3ccc(Cl)c(Cl)c3)cs2)c1C(F)(F)F recorded_metric=IC50 result="13.2 µM (active)"
compound=COc1cccc(CNc2ccc([N+](=O)[O-])cc2C)c1 recorded_metric=IC50 result="9.05 µM (active)"

Provenance of the data: ChEMBL document CHEMBL1201862
